Source: patent US4117122A

Assay: oral LD50 in standard animal tests
Type: in vivo
Conditions: in vivo, standard animal tests, approximately
measured.attribute: LD50

CN(C)CCCC1(O)c2ccccc2CNc2ccc(Cl)cc21 (centres unmarked) ... ~175 mg/kg

With those in mind, consider the next compound.
Recorded result, CN(C)CCCC1(O)c2ccccc2C=Nc2ccccc21 (centres unmarked) , LD50: ~130 mg/kg
